- System: PIK3CA (human), P42336 [E545A]
- assay: KINOMEscan competition binding
- condition.context: compound 10.0 µM
measure.name: kinase still bound, per cent of control (%)
Answer with a number only, understood to be in %.

Any idea what kinase still bound, per cent of control was measured for `O=C1Nc2ccc(I)cc2/C1=C/c1cc(Br)c(O)c(Br)c1` ?
86

Another: `NC(=O)Nc1cc(-c2cccc(F)c2)sc1C(=O)N[C@@H]1CCCNC1`
16

Another: `CCCS(=O)(=O)Nc1ccc(F)c(C(=O)c2c[nH]c3ncc(Cl)cc23)c1F`
92

* * *

- experimental.target: MAP3K9 (human) (UniProt P80192)
- Sequence (P80192 whole entry, looked up): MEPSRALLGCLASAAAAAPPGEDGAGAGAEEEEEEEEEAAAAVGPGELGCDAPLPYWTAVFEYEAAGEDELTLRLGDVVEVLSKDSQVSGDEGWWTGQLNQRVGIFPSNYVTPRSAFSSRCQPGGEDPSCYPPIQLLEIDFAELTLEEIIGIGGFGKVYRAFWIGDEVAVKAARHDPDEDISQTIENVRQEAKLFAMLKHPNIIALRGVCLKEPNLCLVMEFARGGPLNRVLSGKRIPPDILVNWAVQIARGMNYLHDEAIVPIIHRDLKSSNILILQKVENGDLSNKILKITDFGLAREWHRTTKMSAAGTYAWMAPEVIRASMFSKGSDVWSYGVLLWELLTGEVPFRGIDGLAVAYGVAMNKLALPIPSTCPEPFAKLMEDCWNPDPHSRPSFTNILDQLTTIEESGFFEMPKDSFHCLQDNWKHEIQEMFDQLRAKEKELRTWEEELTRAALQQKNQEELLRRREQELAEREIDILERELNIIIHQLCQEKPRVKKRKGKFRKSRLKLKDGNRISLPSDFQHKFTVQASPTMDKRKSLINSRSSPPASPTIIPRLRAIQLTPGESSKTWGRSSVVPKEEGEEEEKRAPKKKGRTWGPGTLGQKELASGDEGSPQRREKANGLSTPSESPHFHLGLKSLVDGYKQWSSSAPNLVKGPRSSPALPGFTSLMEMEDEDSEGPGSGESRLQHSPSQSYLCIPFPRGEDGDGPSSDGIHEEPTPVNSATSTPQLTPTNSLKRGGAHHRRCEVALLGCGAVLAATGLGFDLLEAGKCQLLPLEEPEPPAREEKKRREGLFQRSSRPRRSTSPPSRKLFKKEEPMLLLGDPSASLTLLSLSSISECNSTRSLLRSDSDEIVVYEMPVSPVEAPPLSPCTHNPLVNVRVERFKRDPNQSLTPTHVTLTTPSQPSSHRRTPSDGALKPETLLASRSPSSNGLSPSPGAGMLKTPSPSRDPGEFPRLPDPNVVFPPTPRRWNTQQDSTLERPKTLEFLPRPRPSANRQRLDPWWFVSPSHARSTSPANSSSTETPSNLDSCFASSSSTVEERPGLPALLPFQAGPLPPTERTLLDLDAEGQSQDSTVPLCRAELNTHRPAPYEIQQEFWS
- assay: KINOMEscan competition binding
- condition.context: compound 10.0 µM
measure.name: kinase still bound, per cent of control (%)
Answer with a number only, understood to be in %.

The cases that follow already have their kinase still bound, per cent of control on record.
>  <entry.smiles>
Cc1cc([C@@H](C)Nc2ccccc2C(=O)O)c2nc(N3CCOCC3)cc(=O)n2c1

>  <kinase still bound, per cent of control [%]>
91

$$$$
>  <entry.smiles>
COc1cc(N2CCN(C)CC2)ccc1Nc1nc(N)c(C(=O)c2c(Cl)cccc2Cl)s1

>  <kinase still bound, per cent of control [%]>
100

$$$$
>  <entry.smiles>
C=CC(=O)Nc1cccc(Oc2nc(Nc3ccc(N4CCN(C)CC4)cc3OC)ncc2Cl)c1

>  <kinase still bound, per cent of control [%]>
35

$$$$
>  <entry.smiles>
Cc1ccc(NC(=O)c2cccc(C(C)(C)C#N)c2)cc1Nc1ccc2ncn(C)c(=O)c2c1

>  <kinase still bound, per cent of control [%]>
94

$$$$
>  <entry.smiles>
CCC(=O)N1CCN(c2ccc(-n3c(=O)ccc4cnc5ccc(-c6cnc7ccccc7c6)cc5c43)cc2C(F)(F)F)CC1

>  <kinase still bound, per cent of control [%]>
84

$$$$

Find the measured kinase still bound, per cent of control: item `O=C(NOC[C@H](O)CO)c1ccc(F)c(F)c1Nc1ccc(I)cc1F` , target or system MAP3K9 (human) (UniProt P80192).
95

Another: `C=CC(=O)Nc1cc(NC(=O)c2ccc(C)c(NC(=O)c3ccno3)c2)cc(C(F)(F)F)c1`
98

Another: `O=C1Nc2ccc(I)cc2/C1=C/c1cc(Br)c(O)c(Br)c1`
47

Another: `C=CC(=O)Nc1cccc(Nc2nc(N[C@H]3CC[C@H](N(C)C)CC3)nc3c2ncn3C(C)C)c1`
17

Another: `CN(C)C/C=C/C(=O)Nc1cccc(Nc2ncc3c(n2)N(C)c2ccccc2C(=O)N3C)c1`
89

Another: `O=C(NC1CC1)c1cccc(-c2ccc3c(NC(=O)C4CC4)n[nH]c3c2)c1`
66

* * *

- experimental.target: YSK4 (human)
- assay: KINOMEscan competition binding
- condition.context: compound 10.0 µM
Labelling: kinase still bound, per cent of control reported below 40% becomes True; at or above becomes False.

Completed entries (count: 5):
>  <entry.smiles>
O=C1Nc2ccc(I)cc2/C1=C/c1cc(Br)c(O)c(Br)c1

>  <assigned.category>
True

$$$$
>  <entry.smiles>
Cn1c(=O)n(-c2ccc(C(C)(C)C#N)cc2)c2c3cc(-c4cnc5ccccc5c4)ccc3ncc21

>  <assigned.category>
True

$$$$
>  <entry.smiles>
C[C@@H](Oc1cc(-n2cnc3ccc(CN4CCN(C)CC4)cc32)sc1C(N)=O)c1ccccc1C(F)(F)F

>  <assigned.category>
True

$$$$
>  <entry.smiles>
CCN1CCN(Cc2ccc(Nc3ncc4c(n3)N(C)c3ccccc3C(=O)N4C)cc2C(F)(F)F)CC1

>  <assigned.category>
False

$$$$
>  <entry.smiles>
Cc1ccc2nc(NCCN)c3ncc(C)n3c2c1

>  <assigned.category>
True

$$$$

API: query returns whether the compound falls strictly under 40% in kinase still bound, per cent of control. Query: `O=C(NC1CC1)c1cccc(-c2ccc3c(NC(=O)C4CC4)n[nH]c3c2)c1`
True

Another: `OCCCNc1cc(-c2ccnc(Nc3cccc(Cl)c3)n2)ccn1`
False

Another: `Nc1ccc(-c2ccc3ncc4ccc(=O)n(-c5cccc(C(F)(F)F)c5)c4c3c2)cn1`
True

Another: `Cc1ccc(NC(=O)c2cccc(C(C)(C)C#N)c2)cc1Nc1ccc2ncn(C)c(=O)c2c1`
True

Another: `COc1cc(N2CCN(C)CC2)ccc1Nc1nc(N)c(C(=O)c2c(Cl)cccc2Cl)s1`
False

* * *

Recorded kinase still bound, per cent of control for the following compounds
- experimental.target: RET (human)
- assay: KINOMEscan competition binding
- condition.context: compound 10.0 µM
Answer with a number only, understood to be in %.

Find the measured kinase still bound, per cent of control: item `C=CC(=O)Nc1cc(NC(=O)c2ccc(C)c(NC(=O)c3ccno3)c2)cc(C(F)(F)F)c1` , target or system RET (human).
96

Another: `N#Cc1c(NC(=O)c2cccc3ccccc23)sc2c1CCCC2`
94

* * *

Recorded kinase still bound, per cent of control for the following molecules
- experimental.target: CDC42BPB (human) (UniProt Q9Y5S2)
- Sequence (Q9Y5S2 whole entry, looked up): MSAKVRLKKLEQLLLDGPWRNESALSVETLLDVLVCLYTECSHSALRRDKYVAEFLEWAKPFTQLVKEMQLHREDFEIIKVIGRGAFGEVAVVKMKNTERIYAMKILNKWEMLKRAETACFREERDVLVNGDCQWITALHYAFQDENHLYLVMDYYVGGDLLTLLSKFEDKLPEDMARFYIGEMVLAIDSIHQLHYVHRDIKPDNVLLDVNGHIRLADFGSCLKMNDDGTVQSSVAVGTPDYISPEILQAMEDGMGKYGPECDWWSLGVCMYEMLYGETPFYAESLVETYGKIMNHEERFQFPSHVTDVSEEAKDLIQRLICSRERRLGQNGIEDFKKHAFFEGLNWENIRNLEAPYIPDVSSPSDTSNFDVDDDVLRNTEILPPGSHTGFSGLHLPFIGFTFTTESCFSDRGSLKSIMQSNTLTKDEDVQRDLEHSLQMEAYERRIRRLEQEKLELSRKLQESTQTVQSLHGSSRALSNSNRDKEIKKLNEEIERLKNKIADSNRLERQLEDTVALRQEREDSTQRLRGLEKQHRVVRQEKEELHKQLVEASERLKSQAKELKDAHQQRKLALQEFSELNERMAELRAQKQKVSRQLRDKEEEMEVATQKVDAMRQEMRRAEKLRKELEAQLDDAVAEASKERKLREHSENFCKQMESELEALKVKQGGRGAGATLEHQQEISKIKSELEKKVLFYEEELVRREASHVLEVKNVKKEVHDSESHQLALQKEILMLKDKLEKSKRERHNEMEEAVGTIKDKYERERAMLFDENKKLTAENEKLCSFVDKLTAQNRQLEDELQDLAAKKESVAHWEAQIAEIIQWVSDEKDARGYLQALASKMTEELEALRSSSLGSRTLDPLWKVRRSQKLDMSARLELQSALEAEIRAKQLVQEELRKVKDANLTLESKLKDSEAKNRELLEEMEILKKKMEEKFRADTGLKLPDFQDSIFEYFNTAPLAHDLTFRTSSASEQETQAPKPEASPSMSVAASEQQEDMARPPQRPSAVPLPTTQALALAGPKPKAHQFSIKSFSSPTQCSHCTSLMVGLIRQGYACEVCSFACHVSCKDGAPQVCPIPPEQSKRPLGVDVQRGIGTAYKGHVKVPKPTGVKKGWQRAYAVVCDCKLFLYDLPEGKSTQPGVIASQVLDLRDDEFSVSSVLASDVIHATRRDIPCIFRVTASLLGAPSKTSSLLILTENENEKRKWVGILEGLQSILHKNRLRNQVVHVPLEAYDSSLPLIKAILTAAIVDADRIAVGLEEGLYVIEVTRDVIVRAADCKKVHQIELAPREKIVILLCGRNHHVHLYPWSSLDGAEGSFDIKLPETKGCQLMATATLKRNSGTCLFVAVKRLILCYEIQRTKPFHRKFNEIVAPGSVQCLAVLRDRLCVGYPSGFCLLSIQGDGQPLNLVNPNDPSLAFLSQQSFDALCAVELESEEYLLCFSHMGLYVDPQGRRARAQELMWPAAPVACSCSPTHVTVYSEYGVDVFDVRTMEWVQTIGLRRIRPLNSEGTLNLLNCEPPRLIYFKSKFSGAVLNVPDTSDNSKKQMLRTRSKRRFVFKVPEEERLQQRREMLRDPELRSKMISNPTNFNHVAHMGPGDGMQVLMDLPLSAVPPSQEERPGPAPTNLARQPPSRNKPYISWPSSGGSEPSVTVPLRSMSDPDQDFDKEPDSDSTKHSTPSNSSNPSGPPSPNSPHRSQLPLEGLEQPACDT
- assay: KINOMEscan competition binding
- condition.context: compound 10.0 µM
Express your answer as a number followed by its unit.

>  <entry.smiles>
CC[C@@H]1C(=O)N(C)c2cnc(Nc3ccc(C(=O)NC4CCN(C)CC4)cc3OC)nc2N1C1CCCC1

>  <kinase still bound, per cent of control>
100%

$$$$
>  <entry.smiles>
C=CC(=O)Nc1cccc(Nc2nc(N[C@H]3CC[C@H](N(C)C)CC3)nc3c2ncn3C(C)C)c1

>  <kinase still bound, per cent of control>
76%

$$$$
>  <entry.smiles>
O=C(NOC[C@H](O)CO)c1ccc(F)c(F)c1Nc1ccc(I)cc1F

>  <kinase still bound, per cent of control>
83%

$$$$
>  <entry.smiles>
CCOc1cc2ncc(C#N)c(Nc3ccc(OCc4ccccn4)c(Cl)c3)c2cc1NC(=O)/C=C/CN(C)C

>  <kinase still bound, per cent of control>
100%

$$$$
>  <entry.smiles>
OCCCNc1cc(-c2ccnc(Nc3cccc(Cl)c3)n2)ccn1

>  <kinase still bound, per cent of control>
100%

$$$$

Then this molecule:
Any idea what kinase still bound, per cent of control was measured for `Cc1ccc(C(=O)Nc2cccc(C(F)(F)F)c2)cc1Nc1cncc(C(N)=O)c1` ?
100%

* * *

Recorded kinase still bound, per cent of control for the following molecules
- experimental.target: UniProt:Q9UM73
- Sequence (Q9UM73 whole entry, looked up): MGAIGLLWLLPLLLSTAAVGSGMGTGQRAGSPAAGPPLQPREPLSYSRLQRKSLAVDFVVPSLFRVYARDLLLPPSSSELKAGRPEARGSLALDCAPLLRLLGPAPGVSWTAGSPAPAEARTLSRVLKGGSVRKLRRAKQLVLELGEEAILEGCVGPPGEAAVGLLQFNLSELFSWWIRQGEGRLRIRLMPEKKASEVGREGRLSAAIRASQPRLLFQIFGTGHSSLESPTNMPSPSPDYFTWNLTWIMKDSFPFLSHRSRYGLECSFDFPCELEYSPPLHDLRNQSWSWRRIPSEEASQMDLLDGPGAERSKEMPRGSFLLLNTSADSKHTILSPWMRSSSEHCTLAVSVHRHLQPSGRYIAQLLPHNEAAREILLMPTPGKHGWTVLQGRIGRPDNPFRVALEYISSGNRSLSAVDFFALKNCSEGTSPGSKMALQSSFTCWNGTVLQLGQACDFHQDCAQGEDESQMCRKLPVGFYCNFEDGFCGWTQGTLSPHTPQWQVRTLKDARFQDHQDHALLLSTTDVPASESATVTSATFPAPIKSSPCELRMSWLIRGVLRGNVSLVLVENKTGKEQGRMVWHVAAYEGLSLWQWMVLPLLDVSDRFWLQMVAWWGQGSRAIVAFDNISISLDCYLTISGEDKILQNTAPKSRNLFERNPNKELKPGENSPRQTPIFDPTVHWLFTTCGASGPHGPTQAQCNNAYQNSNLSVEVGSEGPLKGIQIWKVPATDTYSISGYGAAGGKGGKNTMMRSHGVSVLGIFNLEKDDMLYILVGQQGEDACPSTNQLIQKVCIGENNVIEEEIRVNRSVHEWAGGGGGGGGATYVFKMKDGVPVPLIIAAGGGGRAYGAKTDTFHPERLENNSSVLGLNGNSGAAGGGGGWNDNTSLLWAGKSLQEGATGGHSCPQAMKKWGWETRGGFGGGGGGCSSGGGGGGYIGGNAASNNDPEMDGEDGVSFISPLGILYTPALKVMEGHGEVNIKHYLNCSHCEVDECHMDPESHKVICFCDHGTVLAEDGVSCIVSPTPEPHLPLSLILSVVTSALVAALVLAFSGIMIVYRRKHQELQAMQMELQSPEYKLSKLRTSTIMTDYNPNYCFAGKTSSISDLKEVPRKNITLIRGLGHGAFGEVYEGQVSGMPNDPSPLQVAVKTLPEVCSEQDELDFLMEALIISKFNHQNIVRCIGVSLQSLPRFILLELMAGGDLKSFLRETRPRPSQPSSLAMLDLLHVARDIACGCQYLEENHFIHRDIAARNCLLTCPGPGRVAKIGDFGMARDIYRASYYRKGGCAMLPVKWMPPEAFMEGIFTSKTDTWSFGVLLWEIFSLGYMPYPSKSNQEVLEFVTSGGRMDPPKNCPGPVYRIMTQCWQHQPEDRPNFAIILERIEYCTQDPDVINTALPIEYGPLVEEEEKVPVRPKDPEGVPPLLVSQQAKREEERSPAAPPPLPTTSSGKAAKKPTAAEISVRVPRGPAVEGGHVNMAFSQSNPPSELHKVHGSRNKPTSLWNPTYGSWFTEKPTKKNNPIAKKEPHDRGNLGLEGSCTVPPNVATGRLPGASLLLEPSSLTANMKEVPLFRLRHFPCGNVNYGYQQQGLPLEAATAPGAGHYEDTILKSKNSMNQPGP
- assay: KINOMEscan competition binding
- condition.context: compound 10.0 µM
Answer with a number only, understood to be in %.

The cases that follow already have their kinase still bound, per cent of control on record.
>  <molecule>
O=C1Nc2ccc(I)cc2/C1=C/c1cc(Br)c(O)c(Br)c1

>  <unit.tag>
%

>  <kinase still bound, per cent of control>
100

$$$$
>  <molecule>
COc1cc(C(=O)NC2CCN(C)CC2)ccc1Nc1ncc2c(n1)N(C1CCCC1)C(C)CC(=O)N2C (stereo not given)

>  <unit.tag>
%

>  <kinase still bound, per cent of control>
6.2

$$$$
>  <molecule>
N#Cc1c(NC(=O)c2cccc3ccccc23)sc2c1CCCC2

>  <unit.tag>
%

>  <kinase still bound, per cent of control>
100

$$$$

Any idea what kinase still bound, per cent of control was measured for `CN(C)C/C=C/C(=O)Nc1cccc(Nc2ncc3c(n2)N(C)c2ccccc2C(=O)N3C)c1` ?
51

Another: `Cc1ccc(NC(=O)c2cccc(C(C)(C)C#N)c2)cc1Nc1ccc2ncn(C)c(=O)c2c1`
93

* * *

- experimental.target: MAPK1 (human) (UniProt P28482)
- Sequence (P28482 whole entry, looked up): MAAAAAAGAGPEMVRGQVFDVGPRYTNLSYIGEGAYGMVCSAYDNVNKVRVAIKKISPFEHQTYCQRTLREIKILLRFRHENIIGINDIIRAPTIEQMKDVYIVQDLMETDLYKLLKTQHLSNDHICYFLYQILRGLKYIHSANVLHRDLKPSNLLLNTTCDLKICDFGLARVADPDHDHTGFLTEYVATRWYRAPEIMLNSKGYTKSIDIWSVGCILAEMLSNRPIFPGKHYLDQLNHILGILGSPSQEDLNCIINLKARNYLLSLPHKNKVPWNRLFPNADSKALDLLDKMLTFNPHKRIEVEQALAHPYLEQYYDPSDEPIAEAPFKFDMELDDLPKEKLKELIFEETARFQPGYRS
- assay: KINOMEscan competition binding
- condition.context: compound 10.0 µM
Recorded kinase still bound, per cent of control for the following compounds
Answer with a number only, understood to be in %.

The cases that follow already have their kinase still bound, per cent of control on record.
>  <compound>
CCN1CCN(Cc2ccc(Nc3ncc4c(n3)N(C)c3ccccc3C(=O)N4C)cc2C(F)(F)F)CC1

>  <unit.tag>
%

>  <kinase still bound, per cent of control>
77

$$$$
>  <compound>
C=CC(=O)Nc1cc(NC(=O)c2ccc(C)c(NC(=O)c3ccno3)c2)cc(C(F)(F)F)c1

>  <unit.tag>
%

>  <kinase still bound, per cent of control>
100

$$$$
>  <compound>
N#Cc1c(NC(=O)c2cccc3ccccc23)sc2c1CCCC2

>  <unit.tag>
%

>  <kinase still bound, per cent of control>
89

$$$$
>  <compound>
C[C@@H](Oc1cc(-n2cnc3ccc(CN4CCN(C)CC4)cc32)sc1C(N)=O)c1ccccc1C(F)(F)F

>  <unit.tag>
%

>  <kinase still bound, per cent of control>
100

$$$$
>  <compound>
O=C(NOC[C@H](O)CO)c1ccc(F)c(F)c1Nc1ccc(I)cc1F

>  <unit.tag>
%

>  <kinase still bound, per cent of control>
100

$$$$

Any idea what kinase still bound, per cent of control was measured for `Cn1c(=O)n(-c2ccc(C(C)(C)C#N)cc2)c2c3cc(-c4cnc5ccccc5c4)ccc3ncc21` ?
100

Another: `Cc1cc([C@@H](C)Nc2ccccc2C(=O)O)c2nc(N3CCOCC3)cc(=O)n2c1`
100

Another: `Cc1ccc2nc(NCCN)c3ncc(C)n3c2c1`
97
